system: primary CLL samples (CD19+ and CD5+ cells); test: High-throughput dynamic BH3 profiling (HT-DBP): drug-induced apoptotic priming (delta priming), cytochrome c release after BH3 peptide; format: cell-based, human; conditions: peptide PUMA 1 uM; feature loss_14q32.12
MEASURED_ATTRIBUTE: direction

Known results for molecules:
Cn1c(CCCC(=O)O)nc2cc(N(CCCl)CCCl)ccc21 ... Sensitive
CC(C)C[C@H](NC(=O)[C@H](CCc1ccccc1)NC(=O)CN1CCOCC1)C(=O)N[C@@H](Cc1ccccc1)C(=O)N[C@@H](CC(C)C)C(=O)[C@@]1(C)CO1 ... Sensitive
O=C(CCCCCCNC(=O)c1cnc(N(c2ccccc2)c2ccccc2)nc1)NO ... Resistant
Cc1sc2c(c1C)C(c1ccc(Cl)cc1)=N[C@@H](CC(=O)OC(C)(C)C)c1nnc(C)n1-2 ... Resistant

Next item in the queue.
// fetch direction given entry `CC1(C)CCC(c2ccc(Cl)cc2)=C(CN2CCN(c3ccc(C(=O)NS(=O)(=O)c4ccc(N[C@H](CCN5CCOCC5)CSc5ccccc5)c(S(=O)(=O)C(F)(F)F)c4)cc3)CC2)C1`
Sensitive

---

Tested on: primary CLL samples (CD19+ and CD5+ cells)
Assay: High-throughput dynamic BH3 profiling (HT-DBP): drug-induced apoptotic priming (delta priming), cytochrome c release after BH3 peptide
Format: cell-based, human
Conditions: peptide PUMA 1 uM; feature EC-m2
Procedure: By “delta priming” is meant the difference in priming of a cell for apoptosis measured in the presence of an agent for treating chronic lymphocytic leukemia relative to priming of the cell in the presence of an inert carrier. In embodiments, the inert carrier is DMSO. […]
MEASURED_ATTRIBUTE: direction

Known results for compounds:
O=C(CCCCCCC(=O)Nc1ccccc1)NO ... Sensitive
Cc1c(-c2ccc(N3CCc4cccc(C(=O)Nc5nc6ccccc6s5)c4C3)nc2C(=O)O)cnn1CC12CC3CC(CC(C3)C1)C2 ... Resistant
C[C@H](Nc1ncnc2[nH]cnc12)c1cc2cccc(Cl)c2c(=O)n1-c1ccccc1 ... Sensitive
CN(C)Cc1c(C(=O)NCCOc2ccc(C(=O)NO)cc2)oc2ccccc12 ... Sensitive

Fill in direction for each of the 2 compounds listed.
1. CC1(C)CCC(c2ccc(Cl)cc2)=C(CN2CCN(c3ccc(C(=O)NS(=O)(=O)c4ccc(N[C@H](CCN5CCOCC5)CSc5ccccc5)c(S(=O)(=O)C(F)(F)F)c4)cc3)CC2)C1
2. CC1(C)CCC(CN2CCN(c3ccc(C(=O)NS(=O)(=O)c4ccc(NCC5CCOCC5)c([N+](=O)[O-])c4)c(Oc4cnc5[nH]ccc5c4)c3)CC2)=C(c2ccc(Cl)cc2)C1

1: Resistant; 2: Resistant

---

test system: primary CLL samples (CD19+ and CD5+ cells); assay: High-throughput dynamic BH3 profiling (HT-DBP): drug-induced apoptotic priming (delta priming), cytochrome c release after BH3 peptide; assay type: cell-based, human; conditions: peptide PUMA 1 uM; feature EC-i
MEASURED_ATTRIBUTE: direction

Cc1cc(Nc2cc(CN3CCOCC3)c3nc(C)c(Cc4ccc(Cl)cc4F)n3n2)n[nH]1 ... Resistant
C[C@@H](Oc1cc(-c2cnn(C3CCNCC3)c2)cnc1N)c1c(Cl)ccc(F)c1Cl ... Resistant
Cc1sc2c(c1C)C(c1ccc(Cl)cc1)=N[C@@H](CC(=O)OC(C)(C)C)c1nnc(C)n1-2 ... Resistant

Reference source: patent US20250255889A1
